B1: HDV Ribozyme (parent)
chain: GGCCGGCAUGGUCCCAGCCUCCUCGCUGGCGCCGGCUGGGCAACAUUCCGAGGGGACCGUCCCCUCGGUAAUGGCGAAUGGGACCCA

Variants of: B1
assaySummary: self-cleavage, relative activity (ratio to wild type); higher = more cleavage; co-transcriptional
Exercise: for every item that follows, state its recorded self-cleavage.
Answers are plain numbers.

# per-item lookup of self-cleavage; items listed below
1. G28U G50A
2. C21G G34C

Marked response:
1. 0.0791
2. 0.111

Hi team, please reply with self-cleavage for each item in this list.
1. G29A G82A
2. C21A C58G
3. A45G C86U

Marked response:
0.109
0.128
0.806

Give self-cleavage for each of the items listed below.
1. A45G G52C
2. G10A C64A
3. G5C C63U
4. U37G U46C
5. C3G C84A
6. C22U G74U

Marked response:
1. 1.01
2. 0.646
3. 0.0437
4. 0.128
5. 0.564
6. 0.0683

List the reported self-cleavage of each variant below.
1. U12C A51C
2. G6C U20A
3. C44U C84U

Marked response:
1: 0.378; 2: 0; 3: 0.516
